Biological target: CYP2C19 (Homo sapiens)
Construct: host or cells: E. coli
Sequence (P33261 whole entry): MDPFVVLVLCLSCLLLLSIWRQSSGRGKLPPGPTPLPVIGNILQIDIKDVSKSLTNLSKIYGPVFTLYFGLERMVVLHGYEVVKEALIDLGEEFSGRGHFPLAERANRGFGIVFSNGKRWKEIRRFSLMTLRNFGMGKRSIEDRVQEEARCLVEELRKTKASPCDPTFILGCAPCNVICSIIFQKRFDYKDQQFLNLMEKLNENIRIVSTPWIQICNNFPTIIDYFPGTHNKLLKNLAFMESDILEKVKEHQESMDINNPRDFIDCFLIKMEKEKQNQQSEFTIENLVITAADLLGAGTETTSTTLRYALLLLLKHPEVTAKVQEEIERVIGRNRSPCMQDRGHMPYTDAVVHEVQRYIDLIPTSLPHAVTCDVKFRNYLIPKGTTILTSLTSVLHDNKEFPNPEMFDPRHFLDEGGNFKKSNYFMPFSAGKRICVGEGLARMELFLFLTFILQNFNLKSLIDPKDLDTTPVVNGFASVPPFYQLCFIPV
Test: CYP450 inhibition, fluorescent substrate assay, CYP2C19
Type: biochemical
Conditions: E. coli expressed CYP2C19, pH 7.4, probe CEC (25 μM), 10 μM test compound, substrate CEC 25 μM, read-out: 2C19-CEC % inh.
The molecules listed here are annotated with their inhibition at 30 min, 10 μM.

- Given smiles: "CC(C)CN(C[C@@H](O)[C@H](Cc1ccccc1)NC(=O)OCc1cncs1)C(=O)c1ccc2occc2c1"
  System name: "CYP2C19 (Homo sapiens)"
  inhibition at 30 min, 10 μM: "98%"
- Given smiles: "CC(C)CN(C[C@@H](O)[C@H](Cc1ccccc1)NC(=O)OCc1cncs1)C(=O)c1cccnc1"
  System name: "CYP2C19 (Homo sapiens)"
  inhibition at 30 min, 10 μM: "67%"
- Given smiles: "CC(C)(O)CN(C[C@@H](O)[C@H](Cc1ccccc1)NC(=O)OCc1cncs1)C(=O)c1ccncc1"
  System name: "CYP2C19 (Homo sapiens)"
  inhibition at 30 min, 10 μM: "35%"
- Given smiles: "CC(C)CN(C[C@@H](O)[C@H](Cc1ccccc1)NC(=O)OCc1cncs1)C(=O)OCc1cncs1"
  System name: "CYP2C19 (Homo sapiens)"
  inhibition at 30 min, 10 μM: "97%"
- Given smiles: "CC(C)CN(C[C@@H](O)[C@H](Cc1ccccc1)NC(=O)OCc1cncs1)C(=O)c1ccccn1"
  System name: "CYP2C19 (Homo sapiens)"
  inhibition at 30 min, 10 μM: "64%"
- Given smiles: "CC(C)CN(C[C@@H](O)[C@H](Cc1ccccc1)NC(=O)OCc1cncs1)C(=O)c1ccncc1"
  System name: "CYP2C19 (Homo sapiens)"
  inhibition at 30 min, 10 μM: "76%"
- Given smiles: "CC(C)CN(C[C@@H](O)[C@H](Cc1ccccc1)NC(=O)OCc1cncs1)C(=O)c1ccc(C(F)(F)F)cc1"
  System name: "CYP2C19 (Homo sapiens)"
  inhibition at 30 min, 10 μM: "92%"
- Given smiles: "CC(C)CN(C[C@@H](O)[C@H](Cc1ccccc1)NC(=O)OCc1cncs1)C(=O)C1CCC(F)(F)CC1"
  System name: "CYP2C19 (Homo sapiens)"
  inhibition at 30 min, 10 μM: "77%"
- Given smiles: "COc1cccc(C(=O)N(CC(C)C)C[C@@H](O)[C@H](Cc2ccccc2)NC(=O)OCc2cncs2)c1"
  System name: "CYP2C19 (Homo sapiens)"
  inhibition at 30 min, 10 μM: "89%"
- Given smiles: "CC(C)(C)CN(C[C@@H](O)[C@H](Cc1ccccc1)NC(=O)OCc1cncs1)C(=O)c1ccncc1"
  System name: "CYP2C19 (Homo sapiens)"
  inhibition at 30 min, 10 μM: "60%"
- Given smiles: "CC(C)CN(C[C@@H](O)[C@H](Cc1ccccc1)NC(=O)OCc1cncs1)C(=O)c1cccc(Cl)c1"
  System name: "CYP2C19 (Homo sapiens)"
  inhibition at 30 min, 10 μM: "92%"
- Given smiles: "CC(C)CN(C[C@@H](O)[C@H](Cc1ccccc1)NC(=O)OCc1cncs1)C(=O)c1cccc(Br)c1"
  System name: "CYP2C19 (Homo sapiens)"
  inhibition at 30 min, 10 μM: "87%"
- Given smiles: "Cc1ccc(C(=O)N(CC(C)C)C[C@@H](O)[C@H](Cc2ccccc2)NC(=O)OCc2cncs2)cc1"
  System name: "CYP2C19 (Homo sapiens)"
  inhibition at 30 min, 10 μM: "90%"
- Given smiles: "CC(C)CN(C[C@@H](O)[C@H](Cc1ccccc1)NC(=O)OCc1cncs1)C(=O)c1cccc(C(F)(F)F)c1"
  System name: "CYP2C19 (Homo sapiens)"
  inhibition at 30 min, 10 μM: "100%"
- Given smiles: "CC(C)CN(C[C@@H](O)[C@H](Cc1ccccc1)NC(=O)OCc1cccnc1)C(=O)c1ccncc1"
  System name: "CYP2C19 (Homo sapiens)"
  inhibition at 30 min, 10 μM: "41%"

* * *

The molecules listed here are annotated with their CC50 at 3 days.
Assay: Cytotoxicity in mock-infected MT4 CMV-EGFP cells
Type: cell-based
Settings: human, pCC50 = -log10(CC50), read-out: Toxicity MT4 pCC50 (converted)
Observation type: CC50 at 3 days

- Given smiles: "CC(C)(C)CN(C[C@@H](O)[C@H](Cc1ccccc1)NC(=O)OCc1cncs1)C(=O)c1ccncc1"
  Result: "> 100 µM"
- Given smiles: "CC(C)CN(C[C@@H](O)[C@H](Cc1ccccc1)NC(=O)OCc1cncs1)C(=O)c1cccc(Br)c1"
  Result: "36.3 µM"
- Given smiles: "CC(C)CN(C[C@@H](O)[C@H](Cc1ccccc1)NC(=O)OCc1cncs1)C(=O)OCc1cncs1"
  Result: "77.6 µM"
- Given smiles: "CC(C)(O)CN(C[C@@H](O)[C@H](Cc1ccccc1)NC(=O)OCc1cncs1)C(=O)c1ccncc1"
  Result: "> 100 µM"
- Given smiles: "Cc1cccc(C(=O)N(CC(C)C)C[C@@H](O)[C@H](Cc2ccccc2)NC(=O)OCc2cncs2)c1"
  Result: "> 100 µM"
- Given smiles: "CC(C)CN(C[C@@H](O)[C@H](Cc1ccccc1)NC(=O)OCc1cncs1)C(=O)c1cccc(Cl)c1"
  Result: "42.7 µM"
- Given smiles: "CC(C)CN(C[C@@H](O)[C@H](Cc1ccccc1)NC(=O)OCc1cncs1)C(=O)c1ccc(C(F)(F)F)cc1"
  Result: "39.8 µM"

* * *

Biological target: CYP3A4 (Homo sapiens, UniProt P08684)
Construct: host or cells: E. coli
Sequence (P08684 whole entry): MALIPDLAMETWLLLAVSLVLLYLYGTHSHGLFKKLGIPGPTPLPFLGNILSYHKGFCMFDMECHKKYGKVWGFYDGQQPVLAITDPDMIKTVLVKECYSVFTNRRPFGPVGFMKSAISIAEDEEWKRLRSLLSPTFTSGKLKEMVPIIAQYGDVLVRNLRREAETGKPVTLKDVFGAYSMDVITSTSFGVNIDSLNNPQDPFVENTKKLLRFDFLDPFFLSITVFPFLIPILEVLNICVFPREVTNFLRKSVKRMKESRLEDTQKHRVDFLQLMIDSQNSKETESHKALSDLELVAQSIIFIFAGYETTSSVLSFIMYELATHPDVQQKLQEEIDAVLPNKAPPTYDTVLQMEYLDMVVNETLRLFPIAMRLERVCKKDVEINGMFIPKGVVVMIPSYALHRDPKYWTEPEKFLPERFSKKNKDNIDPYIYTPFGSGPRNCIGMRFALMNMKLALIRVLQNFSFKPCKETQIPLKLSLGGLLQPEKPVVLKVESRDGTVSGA
Assay: CYP450 inhibition, fluorescent substrate assay, CYP3A4
Format: biochemical
Conditions: E. coli expressed CYP3A4, pH 7.4, probe DBF (1 μM), 10 μM test compound, substrate DBF 1 μM, 10 min, read-out: 3A4-DBF % inh.
The compounds listed here are annotated with their inhibition at 10 min, 10 μM.

- Given smiles: "CC(C)CN(C[C@@H](O)[C@H](Cc1ccccc1)NC(=O)OCc1cncs1)C(=O)c1ccc(C(F)(F)F)cc1"
  System name: "CYP3A4 (Homo sapiens, UniProt P08684)"
  Endpoint unit: "%"
  inhibition at 10 min, 10 μM: 99
- Given smiles: "Cc1ccc(C(=O)N(CC(C)C)C[C@@H](O)[C@H](Cc2ccccc2)NC(=O)OCc2cncs2)cc1"
  System name: "CYP3A4 (Homo sapiens, UniProt P08684)"
  Endpoint unit: "%"
  inhibition at 10 min, 10 μM: 97
- Given smiles: "CC(C)CN(C[C@@H](O)[C@H](Cc1ccccc1)NC(=O)OCc1cncs1)C(=O)c1cccnc1"
  System name: "CYP3A4 (Homo sapiens, UniProt P08684)"
  Endpoint unit: "%"
  inhibition at 10 min, 10 μM: 94
- Given smiles: "CC(C)CN(C[C@@H](O)[C@H](Cc1ccccc1)NC(=O)OCc1cncs1)C(=O)c1ccccn1"
  System name: "CYP3A4 (Homo sapiens, UniProt P08684)"
  Endpoint unit: "%"
  inhibition at 10 min, 10 μM: 89
- Given smiles: "CC(C)CN(C[C@@H](O)[C@H](Cc1ccccc1)NC(=O)OCc1cncs1)C(=O)c1cccc(Cl)c1"
  System name: "CYP3A4 (Homo sapiens, UniProt P08684)"
  Endpoint unit: "%"
  inhibition at 10 min, 10 μM: 92
- Given smiles: "Cc1cccc(C(=O)N(CC(C)C)C[C@@H](O)[C@H](Cc2ccccc2)NC(=O)OCc2cncs2)c1"
  System name: "CYP3A4 (Homo sapiens, UniProt P08684)"
  Endpoint unit: "%"
  inhibition at 10 min, 10 μM: 93
- Given smiles: "CC(C)CN(C[C@@H](O)[C@H](Cc1ccccc1)NC(=O)OCc1cncs1)C(=O)c1ccc(F)cc1"
  System name: "CYP3A4 (Homo sapiens, UniProt P08684)"
  Endpoint unit: "%"
  inhibition at 10 min, 10 μM: 92
- Given smiles: "CC(C)CN(C[C@@H](O)[C@H](Cc1ccccc1)NC(=O)OCc1cncs1)C(=O)c1cccc(C(F)(F)F)c1"
  System name: "CYP3A4 (Homo sapiens, UniProt P08684)"
  Endpoint unit: "%"
  inhibition at 10 min, 10 μM: 99
- Given smiles: "CC(C)CN(C[C@@H](O)[C@H](Cc1ccccc1)NC(=O)OCc1cncs1)C(=O)C1CCC(F)(F)CC1"
  System name: "CYP3A4 (Homo sapiens, UniProt P08684)"
  Endpoint unit: "%"
  inhibition at 10 min, 10 μM: 92
- Given smiles: "CC(C)CN(C[C@@H](O)[C@H](Cc1ccccc1)NC(=O)OCc1cncs1)C(=O)c1ccncc1"
  System name: "CYP3A4 (Homo sapiens, UniProt P08684)"
  Endpoint unit: "%"
  inhibition at 10 min, 10 μM: 91
- Given smiles: "COc1ccc(C(=O)N(CC(C)C)C[C@@H](O)[C@H](Cc2ccccc2)NC(=O)OCc2cncs2)cc1"
  System name: "CYP3A4 (Homo sapiens, UniProt P08684)"
  Endpoint unit: "%"
  inhibition at 10 min, 10 μM: 92
- Given smiles: "CC(C)CN(C[C@@H](O)[C@H](Cc1ccccc1)NC(=O)OCc1cncs1)C(=O)CCc1cncs1"
  System name: "CYP3A4 (Homo sapiens, UniProt P08684)"
  Endpoint unit: "%"
  inhibition at 10 min, 10 μM: 89
- Given smiles: "CC(C)CN(C[C@@H](O)[C@H](Cc1ccccc1)NC(=O)OCc1cncs1)C(=O)c1cccc(Br)c1"
  System name: "CYP3A4 (Homo sapiens, UniProt P08684)"
  Endpoint unit: "%"
  inhibition at 10 min, 10 μM: 93
- Given smiles: "CC(C)CN(C[C@@H](O)[C@H](Cc1ccccc1)NC(=O)OCc1cncs1)C(=O)c1cnc2ccccc2n1"
  System name: "CYP3A4 (Homo sapiens, UniProt P08684)"
  Endpoint unit: "%"
  inhibition at 10 min, 10 μM: 93
- Given smiles: "CC(C)CN(C[C@@H](O)[C@H](Cc1ccccc1)NC(=O)OCc1cncs1)C(=O)OCc1cncs1"
  System name: "CYP3A4 (Homo sapiens, UniProt P08684)"
  Endpoint unit: "%"
  inhibition at 10 min, 10 μM: 89
